Examples of sequences with documented sensor-assay potency score (higher = more potent) follow.
target: CXCL1; assay: pooled miR-30 sensor sort-seq; sequence = guide strand; conditions: shRNA
The response must contain the number and no unit.

>>> measured_number("TTCCGCCCATTCTTGAGTGTGG")
-0.98

Req: May I ask what sensor-assay potency score (higher = more potent) has been recorded for TGATTTTCTTAACTATGGGGGA ?
Resp: -0.639

Req: Any idea what sensor-assay potency score (higher = more potent) was measured for ATGATTTTCTTAACTATGGGGG ?
Resp: -0.365

Req: Data request, read-out sensor-assay potency score (higher = more potent), for TTGAGGCAAGCTTTCCGCCCAT
Resp: -0.645

Req: Would you mind telling me what sensor-assay potency score (higher = more potent) value was observed for TGAGGCAAGCTTTCCGCCCATT ?
Resp: -1.55

====

target: KRTAP6-3; test: pooled miR-30 sensor sort-seq; sequence = guide strand; details: shRNA
Measurement Name: sensor-assay potency score (higher = more potent)
Just the number, please.

Take a look at these entries with their results.
>>> measured_number("TTCTGTAGTAGCTGCCACACAT")
-0.0154
>>> measured_number("ATTGTAGTTTCTGTAGTAGCTG")
-0.231

Req: Would you kindly share the measured sensor-assay potency score (higher = more potent) for TTTCTGTAGTAGCTGCCACACA ?
Resp: -1.22

Req: Item under review: TCTGTAGTAGCTGCCACACATG . Reported sensor-assay potency score (higher = more potent)?
Resp: -1.43

====

target: HP1BP3; test: pooled miR-30 sensor sort-seq; sequence = guide strand; settings: shRNA
Measurement Name: sensor-assay potency score (higher = more potent)
Returns: the value as a bare number; no unit string appended.

Some solved cases for reference:
>>> measured_number("TTGATTTCTGAACCACAACAAA")
-1.61
>>> measured_number("TTCTGAACCACAACAAAACTTC")
-0.196
>>> measured_number("TATCTTCTACCTTCTCACCTAA")
-0.313
>>> measured_number("TTCCTCTGAACTTATGTCTGGT")
0.357

Req: Could you share what sensor-assay potency score (higher = more potent) was measured for TAGACTGATCTTTCTCATCCTT , tested on HP1BP3?
Resp: 0.288

====

molecular target: C19orf43; test: pooled miR-30 sensor sort-seq; sequence = guide strand; conditions: shRNA
Measurement Name: sensor-assay potency score (higher = more potent)
Form: value (number only, do not type unit).

>>> measured_number("TTGGCGAACAAGTTCACGCCGC")
-0.437
>>> measured_number("TTATCATCGTCACCGCACTGGT")
-1.04
>>> measured_number("TAATACCTCATCCTCCGTCTTC")
-0.695
>>> measured_number("TTTATCATCGTCACCGCACTGG")
0.198
>>> measured_number("TTGGCTACTATTCCCGTCTTGA")
0.118

Req: Quick check: sensor-assay potency score (higher = more potent) of TGTTCTATGAAGTCTCACGAGG ?
Resp: -1.02

Req: Give the measured sensor-assay potency score (higher = more potent) of ATCATCGTCACCGCACTGGTGA .
Resp: -0.305

====

molecular target: PPIF; assay: pooled miR-30 sensor sort-seq; sequence = guide strand; details: shRNA
Measurement Name: sensor-assay potency score (higher = more potent)

// below: answered sequences
>>> result("TGTGATGACAATCTTCTTGGAT")
0.322
>>> result("TTCAGCTCCAGCACCACGCGGC")
-0.501
>>> result("TTTCACTTCTAGTCAATCTTGT")
0.721
>>> result("TATTTTCTTCACGACGTCCATG")
-0.975

Req: Return sensor-assay potency score (higher = more potent) measured with PPIF given this sequence: TAAACAGGTATTAGAGTCCTTT
Resp: -0.324

Req: Look up sensor-assay potency score (higher = more potent) with PPIF for this sequence: TAGCCATGGACAGGACACCTGG
Resp: -1.46

Req: Provide the documented sensor-assay potency score (higher = more potent) with PPIF as the system for TAGGAAGACAATATTAAACAGG
Resp: -0.559

Req: Please tell me: sensor-assay potency score (higher = more potent) of TTCACTTCTAGTCAATCTTGTT , system PPIF?
Resp: -0.0767

====

target: HDGF; experiment: pooled miR-30 sensor sort-seq; sequence = guide strand; conditions: shRNA
Measurement Name: sensor-assay potency score (higher = more potent)
Give the figure by itself; no unit, no explanation.

Completed entries (count: 5):
>>> measured_number("TTTCTCGTTCTTCTCCTTGGCT")
-0.305
>>> measured_number("TCTGGTGACAACACTGAGGGGG")
0.602
>>> measured_number("TTCCCTTCCTCGTCGCTGCTGC")
-0.283
>>> measured_number("TTCTCGTTCTTCTCCTTGGCTG")
-0.535
>>> measured_number("TCAGGCATCTCGTCAATCCGGG")
-0.426

// next entry
Req: Tell me the measured sensor-assay potency score (higher = more potent) of TCTGGGAGGACTGATAGCCGGA , please.
Resp: -0.805

====

target: WRB; test: pooled miR-30 sensor sort-seq; sequence = guide strand; settings: shRNA
Measurement Name: sensor-assay potency score (higher = more potent)
Respond using a number only.

As a guide, the following entries are already answered.
>>> measured_number("TCGTCCATCATGTTGACTGTGG")
-0.317
>>> measured_number("TTACAGACTAAAATCCAACAGG")
-0.429
>>> measured_number("ATATCTGGCAAACTCGTCCATC")
-0.952

Okay, now this sequence:
Req: Name the reported sensor-assay potency score (higher = more potent) value associated with the sequence TTGCATCCAAACACGAAGCTGA
Resp: 0.58

====

molecular target: SASH3; test: pooled miR-30 sensor sort-seq; sequence = guide strand; details: shRNA
Each entry below lists one item and its recorded sensor-assay potency score (higher = more potent) value.
No unit in the answer, please; the number alone is enough.

>>> measured_number("TTGGCAAAATCCTTGAAGCTGC")
-0.67
>>> measured_number("TTGAGCAGGAGGGTGGATGTGT")
-0.276
>>> measured_number("TAGGGTTTTTAGACTGACCTGA")
0.692
>>> measured_number("TGATCTGGATCACATCTCCTTT")
-1.14
>>> measured_number("TTCTGGAATGTTATCATCCAGA")
-1.05

Req: Provide the documented sensor-assay potency score (higher = more potent) with SASH3 as the system for TTGAAGTCTTCCAGTGTCTGGT
Resp: 0.225

Req: Recall the recorded sensor-assay potency score (higher = more potent) for TGACCATCTGTAATCAGCCTTG with SASH3 and state it.
Resp: -0.932

====

sensor-assay potency score (higher = more potent) values for the sequences below.
molecular target: AMICA1; assay: pooled miR-30 sensor sort-seq; sequence = guide strand; settings: shRNA
Give a plain numeric answer without units written out.

Worked cases, sensor-assay potency score (higher = more potent) given:
>>> measured_number("TATCTCTGGATTAGTCTTCTTC")
-0.382
>>> measured_number("TATACATTTGTCTTCTGTGCTC")
-0.0847
>>> measured_number("TTCTTGAACACCAGGTTCCCTA")
-1.01
>>> measured_number("TTTGTCTTCTGTGCTCTGGAAA")
-0.894

Req: Which value of sensor-assay potency score (higher = more potent) has been reported for TCTATCTTGAATATACATTTGT in the records?
Resp: -0.466

Req: I am curious: what sensor-assay potency score (higher = more potent) value has been reported for AATAGTATAGCACATATTCGTC ?
Resp: -1.02

====

target: GPX2; test: pooled miR-30 sensor sort-seq; sequence = guide strand; conditions: shRNA
Measurement Name: sensor-assay potency score (higher = more potent)
Please state the value as a number alone, without comment.

>>> measured_number("TTGAGCTGGGTGAAGTCCCGGG")
-0.183

Req: Form field - read-out: sensor-assay potency score (higher = more potent); system: GPX2; submitted item: TCACATTTTTGGACAAGGGTGA
Resp: 0.0993

Req: Enter reported sensor-assay potency score (higher = more potent) observed with GPX2 for TTGATGTCAGGCTCAATGTTGA
Resp: -0.614

Req: Checklist item: sensor-assay potency score (higher = more potent) tested on GPX2, entry TTCCAGGCCACATCTGAGCGGC , value?
Resp: -0.521

Req: Any idea what sensor-assay potency score (higher = more potent) came out for ATACTTGAGACTGTTCAGGATC on GPX2?
Resp: -0.893

Req: # returns recorded sensor-assay potency score (higher = more potent) (system: GPX2) for TTGGACAAGGGTGAAGGTGGGC
Resp: 0.00355

====

biological target: WDR34; assay: pooled miR-30 sensor sort-seq; sequence = guide strand; conditions: shRNA
Measurement Name: sensor-assay potency score (higher = more potent)
A bare number is all that is needed in reply.

// below: answered sequences
>>> measured_number("ATACTTGAGGGAGAGCTGCAGC")
-0.787
>>> measured_number("TTCTTGAGCTTGGTGCTCCGTG")
-0.384
>>> measured_number("TTGCTTGATCAAAACTGTGGGT")
-0.138
>>> measured_number("ATACAGACAAGACACCATCTGC")
-0.609
>>> measured_number("TTTCTGGAGATCAAACAGCTGC")
-0.424

Req: # sensor-assay potency score (higher = more potent) lookup, item TTGAACTCCAGACAGTAGACAG
Resp: -1.12

Req: Please give the measured sensor-assay potency score (higher = more potent) for this sequence: TTTGCTTGATCAAAACTGTGGG
Resp: 0.652
